From: ChEMBL document CHEMBL2046390

- assay-name: Lipophilicity, log D of the compound at pH 7.4 by shake-flask method
- Type: physicochemical
- measurement-setup: buffer
endpoint-name: logD

NCCC(=O)N[C@@H](Cc1c[nH]cn1)C(=O)NC[C@@H](CO[N+](=O)[O-])O[N+](=O)[O-] | -2.33
NCCC(=O)N[C@@H](Cc1c[nH]cn1)C(=O)NCc1ccc(OCCCO[N+](=O)[O-])cc1 | -1.01
CCCOc1ccc(CNC(=O)[C@H](Cc2c[nH]cn2)NC(=O)CCN)cc1 | -1.15
NCCC(=O)N[C@@H](Cc1c[nH]cn1)C(=O)NCCCO[N+](=O)[O-] | -2.43
NCCC(=O)N[C@@H](Cc1c[nH]cn1)C(=O)NC[C@H](CO[N+](=O)[O-])O[N+](=O)[O-] | -2.19
